experiment: Toxicity in iv dosed ICR mouse assessed as morbidity and lethality after 14 days; format: organism-based; conditions: in vivo
In this section, each of the compounds is paired with its reported LD50 at 336 h.
The answer is to be given in mg/kg; state only the numeric part.

Example results:
C[C@@H]1[C@H](O)[C@@H](C)/C=C/C=C/C=C/C=C/C=C/C=C/C=C/[C@H](O[C@@H]2O[C@H](C)[C@@H](O)[C@H](N)[C@@H]2O)C[C@@H]2O[C@](O)(C[C@@H](O)C[C@@H](O)[C@H](O)CC[C@@H](O)C[C@@H](O)CC(=O)O[C@H]1C)C[C@H](O)[C@H]2C(=O)O [AMPHOTERICIN B]: 1
C[C@@H]1CC[C@@]2(OC1)O[C@H]1C[C@H]3[C@@H]4CC=C5C[C@@H](O[C@@H]6O[C@H](CO)[C@@H](O[C@@H]7O[C@@H](C)[C@H](O[C@@H]8O[C@@H](C)[C@H](O)[C@@H](O)[C@H]8O)[C@@H](O)[C@H]7O)[C@H](O)[C@H]6O[C@@H]6O[C@@H](C)[C@H](O)[C@@H](O)[C@H]6O)CC[C@]5(C)[C@H]4CC[C@]3(C)[C@H]1[C@@H]2C [PENNOGENIN RAHAMNOSYL CHACOTRIOSIDE]: 5

stdin: // LD50 at 336 h lookup, key: C[C@@H]1CC[C@@]2(OC1)O[C@H]1C[C@H]3[C@@H]4CC=C5C[C@@H](O[C@@H]6O[C@H](CO)[C@@H](O[C@@H]7O[C@@H](C)[C@H](O)[C@@H](O)[C@H]7O)[C@H](O)[C@H]6O[C@@H]6O[C@@H](C)[C@H](O)[C@@H](O)[C@H]6O)CC[C@]5(C)[C@H]4CC[C@]3(C)[C@H]1[C@@H]2C [DIOSCIN]
stdout: 10
